# assay.protocol: Forced degradation experiment of active ingredient (acid, alkali, oxidation, high temperature, light, high humidity), HPLC
# Type: physicochemical
# assay.conditions: High temperature destruction
metric: Impurities C + D (%)

1) CC[C@@H](c1ccccc1)N1Cc2cc3c(cc2C[C@H]1C(=O)N[C@@H](Cc1ccc(-c2ccnc(C)c2C)cc1)C(=O)O)OC[C@H](c1ccc(OCc2ccc(Cl)c(Cl)c2)cc1)O3 [OAD2] | 0.08

---

# assay.protocol: Forced degradation experiment of active ingredient (acid, alkali, oxidation, high temperature, light, high humidity), HPLC
# Assay type: physicochemical
# assay.conditions: Oxidative destruction
metric: Total Impurities (%)

1. CC[C@@H](c1ccccc1)N1Cc2cc3c(cc2C[C@H]1C(=O)N[C@@H](Cc1ccc(-c2ccnc(C)c2C)cc1)C(=O)O)OC[C@H](c1ccc(OCc2ccc(Cl)c(Cl)c2)cc1)O3 | 8.2
